Here the recorded MIC is given for each entry.
# Tested on: Staphylococcus aureus X400
# Condition Parameters: agar dilution

Compound: CCCCCCCC(=O)NC1(C)CC(OC2C(Oc3c4cc5cc3Oc3ccc(cc3Cl)C(O)C3NC(=O)C(NC(=O)C5NC(=O)C(CC(N)=O)NC(=O)C(NC(=O)C(CC(C)C)NC)C(O)c5ccc(c(Cl)c5)O4)c4ccc(O)c(c4)-c4c(O)cc(O)cc4C(C(=O)O)NC3=O)OC(CO)C(O)C2O)OC(C)C1O (stereo not drawn)
Readout Units: µg/mL
MIC: 2
//
Compound: C=CCCCCCCCCC(=O)NC1(C)CC(OC2C(Oc3c4cc5cc3Oc3ccc(cc3Cl)C(O)C3NC(=O)C(NC(=O)C5NC(=O)C(CC(N)=O)NC(=O)C(NC(=O)C(CC(C)C)NC)C(O)c5ccc(c(Cl)c5)O4)c4ccc(O)c(c4)-c4c(O)cc(O)cc4C(C(=O)O)NC3=O)OC(CO)C(O)C2O)OC(C)C1O (stereo not drawn)
Readout Units: µg/mL
MIC: 0.5
//
Compound: CCCCCCCCCC(=O)NC1(C)CC(OC2C(Oc3c4cc5cc3Oc3ccc(cc3Cl)C(O)C3NC(=O)C(NC(=O)C5NC(=O)C(CC(N)=O)NC(=O)C(NC(=O)C(CC(C)C)NC)C(O)c5ccc(c(Cl)c5)O4)c4ccc(O)c(c4)-c4c(O)cc(O)cc4C(C(=O)O)NC3=O)OC(CO)C(O)C2O)OC(C)C1O (stereo not drawn)
Readout Units: µg/mL
MIC: 0.5
